- assay-target: T1, fasCD40-His (Cynomolgus CD40/TNFRSF5 Protein, His Tag, Beijing ACRO Biosystems Co. Ltd., Cat #: CD0-C52H6) (Macaca fascicularis, UniProt G7PG38 21-193)
- T1 construct: Bought protein; also called monkey (Macaca fascicularis) CD40; not shown: His tag
- experimental-details: SPR, Biacore 8K, Protein A chip, CD40-His as analyte, 1:1 Langmuir fit
measured-quantity: koff

{"columns": ["binder", "measured-value"],
 "data": [
  ["6A4-IgG4-FLAA (antibody, V domains shown, Rest: human IgG4 constant regions with FLAA mutations (F234A and L235A, EU numbering)) VH: QVQLVQSGGGLVQPGGSLRLSCAASGFTFSNYVMSWVRQAPGKGLEWVSTIRGSGISTYYTDSVKGRFTTSRDNPKNTLFLQMSSLRAEDTAVYYCAKGIVGATTPFDYWGQGTLVTVSS VL: EIVLTQSPATLSLSPGERATLSCRASQSVRSFLAWYQQKPGQAPRLLIYETSNRATGIPARFSGSGSGTDFTLTISSLEPEDFAVYYCQQRSDWPPTFGQGTKVEIKR", "0.0149 s⁻¹"]
]}
